# Test system: MDA-MB-468 complex spheroids with HUVEC/MSC, viability
# RUN_DESCRIPTION: Anticancer human tumor MDA-MB-468 cell line growth inhibition; active = viability on the fitted dose curve at most 10% of control; inactive = the rest;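 also: spheroids exposed to agents for seven days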
# RUN_PARAMETERS: second compound 0.316 µM; first compound 0.1 µM
Pick one: active, inactive

Task: For O=C(C=Cn1cnc(-c2cc(C(F)(F)F)cc(C(F)(F)F)c2)n1)NNc1cnccn1 + NC1CC1c1ccc(-c2cccc(O)c2)cc1 , which call appears in the assay record?
Result: active

Task: For CC(C)CC(NC(=O)CNC(=O)c1cc(Cl)ccc1Cl)B1OC(=O)CC(CC(=O)O)(C(=O)O)O1 (stereo not given) + NC1CC1c1ccc(-c2cccc(O)c2)cc1 , which call appears in the assay record?
Result: active

Task: For CC(C)CC(NC(=O)CNC(=O)c1cc(Cl)ccc1Cl)B1OC(=O)CC(CC(=O)O)(C(=O)O)O1 (stereo not given) + NC1CCC(NC2CC2c2ccccc2)CC1 , which call appears in the assay record?
Result: active

Task: For CC(C)CC(NC(=O)C(Cc1ccccc1)NC(=O)c1cnccn1)B(O)O (stereo not given) + NC1CCC(NC2CC2c2ccccc2)CC1 , which call appears in the assay record?
Result: active

Task: For Nc1ncn(C2CC(O)C(CO)O2)c(=O)n1 (stereo not given) + NC1CCC(NC2CC2c2ccccc2)CC1 , which call appears in the assay record?
Result: inactive

* * *

# Test system: MDA-MB-468 complex spheroids with HUVEC/MSC, viability
# RUN_DESCRIPTION: Anticancer human tumor MDA-MB-468 cell line growth inhibition;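 also: spheroids exposed to agents for seven days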;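 as to viability, T/C: 100% = DMSO vehicle control viability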
# RUN_PARAMETERS: second compound 1 µM; first compound 0.1 µM; stronger effect = lower value
Catalogue of molecules with associated viability, T/C
Lab book: enter the figure in %, no units written.

Example results:
MOLECULE | UNIT_ANNOTATION | viability, T/C
COc1cc(Nc2ncc3c(n2)-c2ccc(Cl)cc2C(c2c(F)cccc2OC)=NC3)ccc1C(=O)O + NC1CCC(NC2CC2c2ccccc2)CC1 | % | 8.46
CC(C)CC(NC(=O)C(Cc1ccccc1)NC(=O)c1cnccn1)B(O)O (centres undefined) + NC1CCC(NC2CC2c2ccccc2)CC1 | % | 0.88
CC[C@@]1(O)C(=O)OCc2c1cc1n(c2=O)Cc2cc3c(CN(C)C)c(O)ccc3nc2-1 + NC1CC1c1ccc(-c2cccc(O)c2)cc1 | % | 3.43
CC[C@@]1(O)C(=O)OCc2c1cc1n(c2=O)Cc2cc3c(CN(C)C)c(O)ccc3nc2-1 + NC1CCC(NC2CC2c2ccccc2)CC1 | % | 5.19
CC(C)CC(NC(=O)CNC(=O)c1cc(Cl)ccc1Cl)B1OC(=O)CC(CC(=O)O)(C(=O)O)O1 (centres undefined) + NC1CCC(NC2CC2c2ccccc2)CC1 | % | 1.76
COc1cc(Nc2ncc3c(n2)-c2ccc(Cl)cc2C(c2c(F)cccc2OC)=NC3)ccc1C(=O)O + NC1CC1c1ccc(-c2cccc(O)c2)cc1 | % | 4.96
O=C(c1cc(Cc2n[nH]c(=O)c3ccccc23)ccc1F)N1CCN(C(=O)C2CC2)CC1 + NC1CCC(NC2CC2c2ccccc2)CC1 | % | 80.8
CC1COCCN1c1cc(C2(S(C)(=N)=O)CC2)nc(-c2ccnc3[nH]ccc23)n1 (centres undefined) + NC1CCC(NC2CC2c2ccccc2)CC1 | % | 71

// moving on: another record for viability, T/C
Task: // returns reported viability, T/C for input O=C(C=Cn1cnc(-c2cc(C(F)(F)F)cc(C(F)(F)F)c2)n1)NNc1cnccn1 + NC1CC1c1ccc(-c2cccc(O)c2)cc1
Result: 3.32

* * *

# Tested on: MDA-MB-468 complex spheroids with HUVEC/MSC, viability
# RUN_DESCRIPTION: Anticancer human tumor MDA-MB-468 cell line growth inhibition;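 also: spheroids exposed to agents for seven days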;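 as to viability, T/C: 100% = DMSO vehicle control viability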
# RUN_PARAMETERS: second compound 1 µM; first compound 0.03 µM; stronger effect = lower value
# Excerpt: Multicellular complex tumor spheroid response to LSD1 Inhibitor Iadademstat in combination with a variety of drugs and investigational agents in selected tumor cell lines The current study was undertaken to assess response to LSD1 inhibitors in combination with standard-of-care drugs and investigational agents in solid tumor complex spheroid models as well as in the K-562 leukemia. […] Compounds. […] If the clinical Cmax for an agent had not been determined, the highest concentration tested was 10 microM. […]
PROPERTY: viability, T/C (%)
Lab book: enter the figure in %, no units written.

Example results:
COMPOUND | viability, T/C / %
CCN(c1cc(-c2ccc(CN3CCOCC3)cc2)cc(C(=O)NCc2c(C)cc(C)[nH]c2=O)c1C)C1CCOCC1 + NC1CCC(NC2CC2c2ccccc2)CC1 | 92.3
Nc1ncn(C2CC(O)C(CO)S2)c(=O)n1 (centres undefined) + NC1CCC(NC2CC2c2ccccc2)CC1 | 64.1
Nc1ccccc1NC(=O)c1ccc(CNC(=O)OCc2cccnc2)cc1 + NC1CC1c1ccc(-c2cccc(O)c2)cc1 | 78.6

Task: // returns reported viability, T/C for input COc1cc(C2c3cc4c(cc3C(OC3OC5COC(C)OC5C(O)C3O)C3COC(=O)C23)OCO4)cc(OC)c1O (centres undefined) + NC1CC1c1ccc(-c2cccc(O)c2)cc1
Result: 64.2

* * *

# System: MDA-MB-468 complex spheroids with HUVEC/MSC, viability
# RUN_DESCRIPTION: Anticancer human tumor MDA-MB-468 cell line growth inhibition; active = viability on the fitted dose curve at most 10% of control; inactive = the rest;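 also: spheroids exposed to agents for seven days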
# RUN_PARAMETERS: second compound 3.16 µM; first compound 1 µM
Pick one: active, inactive

Would you please look over these solved cases?
COMPOUND | CLASS
CC1COCCN1c1cc(C2(S(C)(=N)=O)CC2)nc(-c2ccnc3[nH]ccc23)n1 (centres undefined) + NC1CCC(NC2CC2c2ccccc2)CC1 | inactive
COc1cc(Nc2ncc3c(n2)-c2ccc(Cl)cc2C(c2c(F)cccc2OC)=NC3)ccc1C(=O)O + NC1CCC(NC2CC2c2ccccc2)CC1 | active

Task: For CC1COCCN1c1cc(-c2ccnn2C)c2ccnc(-c3ccn[nH]3)c2n1 (centres undefined) + NC1CC1c1ccc(-c2cccc(O)c2)cc1 , which call appears in the assay record?
Result: active

Task: For Nc1ncn(C2CC(O)C(CO)O2)c(=O)n1 (centres undefined) + NC1CC1c1ccc(-c2cccc(O)c2)cc1 , which call appears in the assay record?
Result: active

* * *

Catalogue of compounds with associated viability, T/C
# System: MDA-MB-468 complex spheroids with HUVEC/MSC, viability
# RUN_DESCRIPTION: Anticancer human tumor MDA-MB-468 cell line growth inhibition;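 also: spheroids exposed to agents for seven days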;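 as to viability, T/C: 100% = DMSO vehicle control viability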
# RUN_PARAMETERS: second compound 0.1 µM; first compound 0.00316 µM; stronger effect = lower value
Lab book: enter the figure in %, no units written.

Example results:
COMPOUND | UNIT_ANNOTATION | viability, T/C
Cn1ncnc1C1c2n[nH]c(=O)c3cc(F)cc(c23)NC1c1ccc(F)cc1 (configuration not stated) + NC1CC1c1ccc(-c2cccc(O)c2)cc1 | % | 72.5
Cn1ncnc1C1c2n[nH]c(=O)c3cc(F)cc(c23)NC1c1ccc(F)cc1 (configuration not stated) + NC1CCC(NC2CC2c2ccccc2)CC1 | % | 81.3
CC(C)CC(NC(=O)CNC(=O)c1cc(Cl)ccc1Cl)B1OC(=O)CC(CC(=O)O)(C(=O)O)O1 (configuration not stated) + NC1CC1c1ccc(-c2cccc(O)c2)cc1 | % | 37.6
CC[C@@]1(O)C(=O)OCc2c1cc1n(c2=O)Cc2cc3c(CN(C)C)c(O)ccc3nc2-1 + NC1CC1c1ccc(-c2cccc(O)c2)cc1 | % | 12.6
COc1cc(Nc2ncc3c(n2)-c2ccc(Cl)cc2C(c2c(F)cccc2OC)=NC3)ccc1C(=O)O + NC1CC1c1ccc(-c2cccc(O)c2)cc1 | % | 15.5
COc1cc(Nc2ncc3c(n2)-c2ccc(Cl)cc2C(c2c(F)cccc2OC)=NC3)ccc1C(=O)O + NC1CCC(NC2CC2c2ccccc2)CC1 | % | 67.1

// moving on: another record for viability, T/C
Task: // returns reported viability, T/C for input CC[C@@]1(O)C(=O)OCc2c1cc1n(c2=O)Cc2cc3c(CN(C)C)c(O)ccc3nc2-1 + NC1CCC(NC2CC2c2ccccc2)CC1
Result: 13.1

* * *

# Tested on: MDA-MB-468 complex spheroids with HUVEC/MSC, viability
# RUN_DESCRIPTION: Anticancer human tumor MDA-MB-468 cell line growth inhibition;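 also: spheroids exposed to agents for seven days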
# RUN_PARAMETERS: curve of first compound; second compound 3.16 µM
pIC50: −log10 of the molar value.
The class of a record is decided solely by its measured pIC50; consult lower level = under 7, middle level = from 7 up to 8, upper level = 8 and over

COMPOUND | CLASS
O=C(C=Cc1cccc(S(=O)(=O)Nc2ccccc2)c1)NO + NC1CC1c1ccc(-c2cccc(O)c2)cc1 | middle level

Task: Record NS(=O)(=O)OCC1CC(n2ccc3c(NC4CCc5ccccc54)ncnc32)CC1O (configuration not stated) + NC1CC1c1ccc(-c2cccc(O)c2)cc1 — which class?
Result: upper level

Task: Record COc1cc(Nc2ncc3c(n2)-c2ccc(Cl)cc2C(c2c(F)cccc2OC)=NC3)ccc1C(=O)O + NC1CCC(NC2CC2c2ccccc2)CC1 — which class?
Result: upper level

Task: Record CC(C)c1c(-c2ccccc2)nc2c(C#N)c[nH]n2c1=O + NC1CCC(NC2CC2c2ccccc2)CC1 — which class?
Result: lower level

Task: Record CC(C)CC(NC(=O)C(Cc1ccccc1)NC(=O)c1cnccn1)B(O)O (configuration not stated) + NC1CCC(NC2CC2c2ccccc2)CC1 — which class?
Result: upper level

Task: Record COc1cc(Nc2ncc3c(n2)-c2ccc(Cl)cc2C(c2c(F)cccc2OC)=NC3)ccc1C(=O)O + NC1CC1c1ccc(-c2cccc(O)c2)cc1 — which class?
Result: upper level

All values here come from PubChem BioAssay AID1918954.
